// read-out IC50, gathered for human ACC2 (Homo sapiens (Human)) from published studies
Please state the figure in nM; there is no need to write the unit.

- compound: "CCCN(C)c1nccc(N2CC[C@@H](Oc3ccc(C(C)C(=O)NCC)cc3)C2)n1 (some centres unmarked)"
  target_entity: "human ACC2 (Homo sapiens (Human))"
  quantity_measured: "IC50"
  unit_of_measure: "nM"
  quantitative_readout: 188
- compound: "Cc1cncc(C(=O)N[C@@H](C)c2ccc(OC3CCN(c4cccc(C(F)(F)F)n4)C3)cc2)c1 (some centres unmarked)"
  target_entity: "human ACC2 (Homo sapiens (Human))"
  quantity_measured: "IC50"
  unit_of_measure: "nM"
  quantitative_readout: 895
- compound: "C[C@H](NC(=O)c1ccon1)c1ccc(CN2CCc3cc(OCC4CC4(F)F)ccc3C2)cc1 (some centres unmarked)"
  target_entity: "human ACC2 (Homo sapiens (Human))"
  quantity_measured: "IC50"
  unit_of_measure: "nM"
  quantitative_readout: 52
- compound: "Cc1ccc(-c2ccc(Cl)cc2)cc1C1=C(O)C2(CCC(OCC(F)(F)F)CC2)NC1=O (centres unmarked)"
  target_entity: "human ACC2 (Homo sapiens (Human))"
  quantity_measured: "IC50"
  unit_of_measure: "nM"
  quantitative_readout: 535
- compound: "C[C@H](NC(=O)C1CC=CC1)c1ccc(C2CN(c3ccc(OCC4CC4)cc3)C2)cc1"
  target_entity: "human ACC2 (Homo sapiens (Human))"
  quantity_measured: "IC50"
  unit_of_measure: "nM"
  quantitative_readout: 380
- compound: "CC(=O)NC(C)CCc1ccc(C2CN(c3ccc(OC4CC4)cc3)C2)cc1 (centres unmarked)"
  target_entity: "human ACC2 (Homo sapiens (Human))"
  quantity_measured: "IC50"
  unit_of_measure: "nM"
  quantitative_readout: 480
- compound: "C=CC(=O)NC(C)Cc1ccc(C#Cc2ccc(OCC)cc2)cc1 (centres unmarked)"
  target_entity: "human ACC2 (Homo sapiens (Human))"
  quantity_measured: "IC50"
  unit_of_measure: "nM"
  quantitative_readout: 460

Query for human ACC2 (Homo sapiens (Human)): what IC50 does the record show for CC(=O)NC(C)Cc1ccc(C#Cc2ccc(C(=O)N(C)Cc3cccnc3)cc2)cc1 (centres unmarked) ? 11500

---

// read-out pIC50, gathered for human ACC2 (Homo sapiens (Human)) from published studies
Interpret pIC50 as the negative base-10 log of the concentration measured in mol/L.

Reference set, count: 2
- molecule: "CC(=O)N[C@@H](C)c1ccc(OC2CCN(c3ccc(OCC4CC(F)(F)C4)cc3)C2)cc1 (some centres unmarked)"
  pIC50: 7.21
- molecule: "CCCOc1cnc(N2CCC(Oc3ccc([C@H](C)NC(C)=O)cc3)C2)c(F)c1 (some centres unmarked)"
  pIC50: 6.82

pIC50 lookup needed for CC(C(=O)NC1CC1)c1ccc(O[C@@H]2CCN(c3ncnc(OCC(C)(C)O)c3F)C2)cc1 (some centres unmarked) , thanks. 6.63

pIC50 lookup needed for CC(=O)NC(C)Cc1ccc(C#Cc2ccc(C(=O)N(C)Cc3nc(C)oc3C)cc2)cc1 (centres unmarked) , thanks. 5.25

pIC50 lookup needed for C[C@H](NC(=O)CO)c1ccc(OC2CCN(c3ccnc(OCC4CC4)c3)C2)cc1 (some centres unmarked) , thanks. 6.89

pIC50 lookup needed for C[C@H](NC(=O)N(C)C)c1ccc(OC2CCN(c3ccnc(N4CCC(F)(F)C4)c3F)C2)cc1 (some centres unmarked) , thanks. 7.30

pIC50 lookup needed for `Cc1cc(C)c(-c2ccc(Cl)cc2)c(C)c1C1=C(O)C2(CCCCC2)OC1=O` , thanks. 6.86

pIC50 lookup needed for CC(=O)NC(C)c1ccc(C#Cc2ccc(OC3CCCC3)cc2)cc1 (centres unmarked) , thanks. 6.72
